- PROTOCOL NOTES: Inhibition of cobalt-activated Escherichia coli MetAP
pIC50: −log10 of the molar value.
MEASURED PARAMETER: pIC50

Examples from the recorded data:
MOLECULE SMILES: O=C(NC1CCC1)c1ccc(-c2ccc(O)c(O)c2)o1
ASSAY RESULT: 4.65
//
MOLECULE SMILES: C=CCCNC(=O)c1ccc(-c2ccc(O)c(O)c2)o1
ASSAY RESULT: 4.67
//
MOLECULE SMILES: O=C(NC1CC1)c1ccc(-c2ccc(O)c(O)c2)o1
ASSAY RESULT: < 4.00
//
MOLECULE SMILES: Oc1ccc(-c2ncccn2)cc1O
ASSAY RESULT: < 4.00
//
MOLECULE SMILES: Oc1ccc(-c2cn(Cc3ccccc3)nn2)cc1O
ASSAY RESULT: 4.61
//
MOLECULE SMILES: COC(=O)c1ncoc1-c1cccc(O)c1O
ASSAY RESULT: < 4.00
//
MOLECULE SMILES: Cn1ccnc1-c1ccc(O)c(O)c1
ASSAY RESULT: < 4.00
//
MOLECULE SMILES: Oc1ccc(-c2ncc(F)cn2)cc1O
ASSAY RESULT: 4.28
//
MOLECULE SMILES: O=C(NC1CCCC1)c1ncoc1-c1cccc(O)c1O
ASSAY RESULT: < 4.00
//
MOLECULE SMILES: C=CCCNC(=O)c1ncoc1-c1cccc(O)c1O
ASSAY RESULT: < 4.00

Task: Given O=C(NC1CCCC1)c1ccc(-c2ccc(O)c(O)c2)o1 , state its recorded pIC50.
Output: 4.52

Task: Similarly, COc1cnc(-c2cccc(O)c2O)o1 ?
Output: < 4.00

Task: Next: Oc1ccc(-c2ccccn2)cc1O
Output: < 4.00

###

- Tested on: Escherichia coli
- PROTOCOL NOTES: Antibacterial activity against Escherichia coli AS19
- Assay type: functional, organism-based
pIC50: −log10 of the molar value.
MEASURED PARAMETER: pIC50

Please review the following examples before continuing.
MOLECULE SMILES: O=C(NC1CCCC1)c1ccc(-c2ccc(O)c(O)c2)o1
pIC50: 4.63
//
MOLECULE SMILES: COC(=O)c1ncoc1-c1cccc(O)c1O
pIC50: 3.92
//
MOLECULE SMILES: Oc1ccc(-c2ncc(F)cn2)cc1O
pIC50: 3.69
//
MOLECULE SMILES: COc1cnc(-c2cccc(O)c2O)o1
pIC50: 3.64
//
MOLECULE SMILES: C=CCCNC(=O)c1ccc(-c2ccc(O)c(O)c2)o1
pIC50: 4.29
//
MOLECULE SMILES: Oc1ccc(-c2ccccn2)cc1O
pIC50: 3.68

1 = C=CCCNC(=O)c1ncoc1-c1cccc(O)c1O
2 = O=C(NC1CC1)c1ccc(-c2ccc(O)c(O)c2)o1
3 = O=C(NC1CCCC1)c1ncoc1-c1cccc(O)c1O
Task: # rank_down: sort by pIC50, max first Rank them, then answer with their labels in that order.
Output: 2, 1, 3

a = O=C(NC1CCC1)c1ccc(-c2ccc(O)c(O)c2)o1
b = Oc1ccc(-c2cn(Cc3ccccc3)nn2)cc1O
Task: Name the one with the greater pIC50 value, either a or b as given. Identify your selection by its label.
Output: a
(a: 4.36, b: 4.01)
